Origin of the recorded values: PubChem BioAssay (NCI)

Tested on: SNB-75 CNS
Experiment: NCI tumour cell line growth inhibition, 48 h
measurementName: TGI

{"columns": ["molecule", "measurementName", "recordedValue"],
 "data": [
  ["C(=C\\C(Sc1ccccc1)c1ccccc1)/NNC1=NC(c2ccccc2)C(c2ccccc2)=NN1 (stereo unspecified)", "TGI", "> 100 µM"],
  ["N#Cc1ccc(Oc2ccccc2)cc1C#N", "TGI", "> 100 µM"],
  ["COc1cc2ncnc(Nc3ccc(Oc4ccnc(C)c4)c(C)c3)c2cc1NC(=O)CC1CCSS1 (stereo unspecified)", "TGI", "> 25.2 µM"],
  ["COc1ccc(C(=O)c2cc3c(N)c(C(=O)Nc4cccc(Br)c4C)sc3nc2C)cc1", "TGI", "> 100 µM"],
  ["O=S(=O)(O)c1ccc2c(N=Nc3ccc(S(=O)(=O)O)c4ccccc34)c(O)c(S(=O)(=O)O)cc2c1", "TGI", "> 100 µM"],
  ["CC(C)OC(=O)[C@H]1ON2O[C@H](O[C@@H]3CCCC[C@H]3c3ccccc3)C([Si](C)(C)c3ccccc3)[C@H]3OC(=O)[C@@H]1C32 (stereo partly specified)", "TGI", "> 100 µM"],
  ["C/C(=N\\Nc1nc2ccccc2[nH]1)c1cnccn1", "TGI", "> 53.9 µM"],
  ["CC/C(Cl)=N\\OC(=O)Nc1ccc(OC)c(C)c1", "TGI", "> 100 µM"],
  ["C[N+](C)(C)c1cc[c]([Sn]([c]2ccc([N+](C)(C)C)cc2)([c]2ccc([N+](C)(C)C)cc2)[c]2ccc([N+](C)(C)C)cc2)cc1", "TGI", "> 100 µM"],
  ["CC(=O)Nc1ccc(S(=O)(=O)N=S(C)C)cc1", "TGI", "> 100 µM"],
  ["CCn1c(=O)c(C(=O)O)c(Cl)c2cc3c(cc21)OCO3", "TGI", "> 100 µM"]
]}

====

Tested on: NCI-H226 lung
Experiment: NCI tumour cell line growth inhibition, 48 h; in the data active = GI50 below about 0.43 µM; inactive = the rest
Outcomes: active, inactive

{"columns": ["molecule", "label"],
 "data": [
  ["COc1ccc2c(O)c(/C=C3\\N=Nc4ncccc43)oc2c1C[C@@H]1CCNC[C@H]1F", "active"],
  ["CCC(C)C1=C(O)[N+]2([O-])Oc3ccc(C4=C(O)C(=O)C(c5ccc(O)cc5)=C(O)C4=O)cc3OC2(C(C)CC)C(=O)N1O (stereo unspecified)", "inactive"],
  ["Cc1nc2sc3c(N)ncnc3c2c(C)c1C", "inactive"],
  ["O=C1Cc2cc(CCn3cncn3)c(Cl)cc2N1", "inactive"],
  ["Fc1ccc(-c2nn3ccccc3c2-c2ccncc2)cc1", "inactive"],
  ["OC1CCCC2CCC[N-]C12.OC1CCCC2CCC[N-]C12.[O]=[V][OH] (stereo unspecified)", "inactive"],
  ["O=C(Nc1cc(F)c(F)cc1C(=O)O)c1ccc(-n2ccnc2)nn1", "inactive"],
  ["Clc1cccc(CNc2c3ccccc3nc3ccccc23)c1", "inactive"],
  ["O=C(NCCOCCOCCOCCNC(=O)c1cc2c(o1)C(=O)c1ccccc1C2=O)NC12CC3CC(CC(C3)C1)C2", "inactive"],
  ["COc1ccc(C(=O)c2cc3c(N)c(C(=O)Nc4cccc(Br)c4C)sc3nc2C)cc1", "active"],
  ["CCCCCCCCCCNCCSS(=O)(=O)O", "inactive"]
]}
